# System: HCT-116
# protocol_details: Antiproliferative activity against human HCT116 cells assessed as reduction in cell viability by MTT assay
# Assay type: functional, cell-based
value_type: IC50

Task item: Record request: IC50 value, item COc1ccc2[nH]cc(Cn3cc(COc4ccc(/C=C/C(=O)NO)cc4OC)nn3)c2c1
Reply: 3.57 to 6.21 µM

* * *

# experimental_system: Aromatase (Homo sapiens)
# Sequence (P11511 whole entry): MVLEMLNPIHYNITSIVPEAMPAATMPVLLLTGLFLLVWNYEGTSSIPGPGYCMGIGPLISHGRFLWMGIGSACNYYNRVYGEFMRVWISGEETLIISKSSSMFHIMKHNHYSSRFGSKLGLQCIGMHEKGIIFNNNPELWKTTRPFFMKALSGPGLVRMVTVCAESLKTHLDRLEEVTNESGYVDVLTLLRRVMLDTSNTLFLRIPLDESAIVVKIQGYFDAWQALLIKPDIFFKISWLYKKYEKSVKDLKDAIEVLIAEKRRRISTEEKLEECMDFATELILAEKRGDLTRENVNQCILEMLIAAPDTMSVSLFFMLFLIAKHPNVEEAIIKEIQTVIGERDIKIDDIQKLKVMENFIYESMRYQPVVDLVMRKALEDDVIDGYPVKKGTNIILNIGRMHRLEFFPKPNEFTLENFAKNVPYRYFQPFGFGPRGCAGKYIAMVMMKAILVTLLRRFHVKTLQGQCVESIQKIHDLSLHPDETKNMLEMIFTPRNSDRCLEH
# protocol_details: Inhibition of recombinant human CYP19 using MFC as substrate incubated for 30 mins in presence of NADPH by fluorescence based assay
value_type: IC50
State the value, then name its unit.

Task item: What does the data say about its IC50? Entry: Cc1[nH]c2ccccc2c1/C=N\Nc1ccc(Cl)cc1
Reply: 8.72 µM
